- Test System: UniProtKB Q6QLK5
- Sequence (Q6QLK5 whole entry, the tested form may be a part): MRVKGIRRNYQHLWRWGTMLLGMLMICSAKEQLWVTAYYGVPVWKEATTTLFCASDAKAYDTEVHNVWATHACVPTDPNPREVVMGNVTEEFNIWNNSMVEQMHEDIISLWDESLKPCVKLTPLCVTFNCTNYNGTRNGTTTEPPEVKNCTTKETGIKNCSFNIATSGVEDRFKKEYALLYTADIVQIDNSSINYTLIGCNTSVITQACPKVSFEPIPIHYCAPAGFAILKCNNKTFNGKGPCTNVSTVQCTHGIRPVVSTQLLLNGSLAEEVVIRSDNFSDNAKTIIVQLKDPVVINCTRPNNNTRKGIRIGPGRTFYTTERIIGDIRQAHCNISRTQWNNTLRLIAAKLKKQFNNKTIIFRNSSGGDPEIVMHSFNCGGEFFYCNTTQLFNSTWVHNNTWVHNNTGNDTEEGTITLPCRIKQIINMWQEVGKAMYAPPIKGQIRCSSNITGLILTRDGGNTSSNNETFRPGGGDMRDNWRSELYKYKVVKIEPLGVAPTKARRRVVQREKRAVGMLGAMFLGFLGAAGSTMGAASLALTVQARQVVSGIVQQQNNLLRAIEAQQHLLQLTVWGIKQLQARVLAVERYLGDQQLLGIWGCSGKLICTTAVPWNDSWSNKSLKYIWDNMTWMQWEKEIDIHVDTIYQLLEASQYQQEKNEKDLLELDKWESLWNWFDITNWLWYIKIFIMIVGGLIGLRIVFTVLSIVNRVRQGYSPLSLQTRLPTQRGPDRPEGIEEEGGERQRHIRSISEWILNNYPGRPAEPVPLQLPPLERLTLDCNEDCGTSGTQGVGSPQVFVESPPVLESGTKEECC
- Assay Method Text: cell-free HIV fusion peptide-binding blockers – biochemical, uHTS, fluorescence dequenching, […] (AID 1986)
Active and inactive are the calls of the source. No stated cut-off is given here; in the data, actives have a measured IC50 and inactives only a lower limit.
Some molecules, each annotated with its measured IC50.

COc1cc([N+](=O)[O-])cc(/C=N/NC(=O)c2cc(-c3ccccc3)nc3ccccc23)c1O ... 30.3 µM (active)
CS(=O)(=O)C1=NSC2=NC(=O)/C(=C\c3cccn3-c3ccc(Cl)cc3)C(=N)N21 ... 18.5 µM (active)
CCOc1ccc(CCNC(=O)c2ccc3c(=O)[nH]c4c(C(=O)NC(C)C)sc(=S)n4c3c2)cc1 ... 62.5 µM (active)
CSc1ccc(C(c2c(C(=O)O)[nH]c3ccccc23)c2c(C(=O)O)[nH]c3ccccc23)cc1 ... 8.99 µM (active)

Let us move to another entry and its IC50.
The observed IC50 for CC(C)CS(=O)(=O)C1=NSC2=NC(=O)/C(=C\c3ccc(OC(=O)c4ccco4)cc3)C(=N)N21 when tested with UniProtKB Q6QLK5 stands at 15.6 µM (active)
